Entries and their polymerase ribozyme fitness (log ratio) values follow.
B1: TPR t1 (parent)
chain: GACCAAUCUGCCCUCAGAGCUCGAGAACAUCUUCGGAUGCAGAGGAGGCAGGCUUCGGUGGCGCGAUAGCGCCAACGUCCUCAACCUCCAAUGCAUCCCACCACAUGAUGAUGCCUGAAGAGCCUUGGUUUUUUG

Variants of: B1
Test: polymerase ribozyme fitness, log enrichment relative to wild type (log ratio); higher = more active; in vitro selection for triplet polymerase activity

The cases that follow already have their polymerase ribozyme fitness (log ratio) on record.
>>> print(df.to_string())
         sequence_variant                               value_type  observed
0     C8A C22G G61U A121U  polymerase ribozyme fitness (log ratio)     -1.38
1  C40A U129G U131A G135C  polymerase ribozyme fitness (log ratio)     -4.21

// next entry
# polymerase ribozyme fitness (log ratio) of C70U C115G U116C = -4.43
